# targetUnderTest: Ubiquitin-activating enzyme e1, putative (Leishmania donovani (strain BPK282A1))
# Sequence (whole entry): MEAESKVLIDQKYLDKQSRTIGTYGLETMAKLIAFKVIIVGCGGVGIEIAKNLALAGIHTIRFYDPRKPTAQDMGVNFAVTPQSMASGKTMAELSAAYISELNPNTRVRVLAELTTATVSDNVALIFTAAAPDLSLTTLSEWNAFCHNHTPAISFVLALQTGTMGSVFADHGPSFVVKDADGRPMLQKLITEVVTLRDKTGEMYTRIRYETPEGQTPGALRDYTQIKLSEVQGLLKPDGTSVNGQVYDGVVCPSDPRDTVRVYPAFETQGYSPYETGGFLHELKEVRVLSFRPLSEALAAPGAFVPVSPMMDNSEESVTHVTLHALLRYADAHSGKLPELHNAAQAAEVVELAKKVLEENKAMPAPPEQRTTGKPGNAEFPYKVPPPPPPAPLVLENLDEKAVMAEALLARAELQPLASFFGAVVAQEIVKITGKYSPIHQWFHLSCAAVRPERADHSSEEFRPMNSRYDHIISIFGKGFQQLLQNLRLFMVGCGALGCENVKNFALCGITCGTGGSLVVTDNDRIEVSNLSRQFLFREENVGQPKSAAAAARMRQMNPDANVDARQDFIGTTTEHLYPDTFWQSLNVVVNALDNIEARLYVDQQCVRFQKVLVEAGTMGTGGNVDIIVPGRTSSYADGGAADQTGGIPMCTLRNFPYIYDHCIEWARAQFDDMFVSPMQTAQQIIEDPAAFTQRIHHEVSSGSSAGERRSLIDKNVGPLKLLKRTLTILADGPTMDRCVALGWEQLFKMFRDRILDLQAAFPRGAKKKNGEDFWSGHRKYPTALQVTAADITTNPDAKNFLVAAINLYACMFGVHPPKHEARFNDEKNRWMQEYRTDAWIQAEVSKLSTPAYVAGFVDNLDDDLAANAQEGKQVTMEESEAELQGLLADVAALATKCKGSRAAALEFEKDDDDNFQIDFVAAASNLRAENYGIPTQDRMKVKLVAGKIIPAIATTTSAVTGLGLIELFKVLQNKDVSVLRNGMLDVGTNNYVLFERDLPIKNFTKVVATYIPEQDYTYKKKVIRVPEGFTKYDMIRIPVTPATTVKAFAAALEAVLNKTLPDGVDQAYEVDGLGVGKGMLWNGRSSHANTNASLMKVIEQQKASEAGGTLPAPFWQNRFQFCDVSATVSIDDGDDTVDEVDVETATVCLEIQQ
# protocolNotes: Leishmania donovani Ubiquitin Activating Enzyme (LdE1)
# Type: functional
# Set-up: scale not given: direction of the effect not stated beside the values
# conditionDescription: 30 µM
Potency and affinity values are given separately.
measuredAttribute: Percent Effect (%)
Give the quantity in %, number only.

Here's what some known entries look like.
* Cn1c(CC2CCS(=O)(=O)C2)nnc1SCCOc1cccc(Cl)c1 (stereo unspecified) | 10.8
* O=C(CCNC(=O)C1CCCC1)NCc1cccnc1-n1cncn1 | 15.8

Shift focus to the following entry.
Query: Identify measured Percent Effect associated with Cn1cc(CC2CCN(C(=O)NCCc3cccc(O)c3)C2)cn1 (stereo unspecified)
Result: 0

Entry source: ChEMBL document CHEMBL3988442
